Assay: self-splicing fitness, log relative to wild type (ln ratio); higher = more splicing; Tetrahymena group I intron in knt gene, E. coli kanamycin selection, DiMSum; sequences stand for … in CUCUCU…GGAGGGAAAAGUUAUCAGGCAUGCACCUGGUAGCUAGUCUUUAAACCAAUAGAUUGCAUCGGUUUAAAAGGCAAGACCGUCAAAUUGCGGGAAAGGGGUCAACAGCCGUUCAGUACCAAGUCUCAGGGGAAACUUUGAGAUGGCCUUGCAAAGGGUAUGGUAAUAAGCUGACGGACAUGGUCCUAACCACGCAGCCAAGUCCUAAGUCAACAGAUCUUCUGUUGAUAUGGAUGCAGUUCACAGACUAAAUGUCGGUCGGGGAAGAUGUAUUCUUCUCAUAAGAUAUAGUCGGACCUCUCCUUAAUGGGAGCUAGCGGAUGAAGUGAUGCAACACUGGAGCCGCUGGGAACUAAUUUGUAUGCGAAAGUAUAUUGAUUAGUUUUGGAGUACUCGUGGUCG;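 further: selection with 25 µg/mL kanamycin versus none on LB agar overnight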
Conditions: 37 °C
self-splicing fitness (ln) values by entry
PROPERTY_LABEL: self-splicing fitness (ln)

BIOSEQUENCE	READOUT_VALUE
CGUUAGCAAUAUUACGUUCU	-1.25
ACAUAGCAAUAUUACGGUAU	-1.77
CGUCAGCAAUAUUACGUCGU	-1.99
GAGAAGCAAUAUUACGAUCG	-0.068
AAAGAGCAAUAUUACGGAUA	-1.92
CGGUAGCAAUAUUACGUGAA	-1.52
ACCGAGCAAUAUUACGCUUA	-1.63
CCGGAGCAAUAUUACGAUCA	-2.63
UGAGAGCAAUAUUACGCGAA	-1.53
AAUAAGCAAUAUUACGCGCA	-0.0417
GGAAAGCAAUAUUACGCGAG	0.758
GCCUAGCAAUAUUACGGGGU	-2.19
GUGAAGCAAUAUUACGCCGU	-0.0879
GCGUAGCAAUAUUACGCCUA	-1.07
UGUAAGCAAUAUUACGGUGC	-2.13
AAUAAGCAAUAUUACGCACU	-0.118
